The values you see were collected from patent US11135234B2.

Record form. Attribute: minimal inhibitory concentration (MIC). Fill in for each entry.
system: E. faecium ATCC19434; test: MIC, agar plate dilution method, E. faecium ATCC19434; format: cell-based, Enterococcus faecium; conditions: E. faecium ATCC19434
Unit µg/mL implied. Number only.

Request: Provide the documented minimal inhibitory concentration (MIC) with E. faecium ATCC19434 as the system for CNC1C(O[C@H]2OC(CO)[C@@H](NC(=O)CN)[C@H](O)C2O)O[C@H]2CC(N)[C@@H](O[C@@H]3C(N)C[C@@H](N)C(O)[C@H]3O)OC2C1O (single isomer, unassigned)
Result: 32

Request: Provide the documented minimal inhibitory concentration (MIC) with E. faecium ATCC19434 as the system for CN[C@@H]1[C@@H](O[C@H]2O[C@H](CO)[C@@H](N)[C@@H](O)[C@H]2O)O[C@H]2C[C@@H](N)[C@@H](O[C@H]3[C@H](O)[C@@H](O)[C@H](N)C[C@@H]3N)O[C@@H]2[C@@H]1O [Compound H3, 3″-epiapramycin]
Result: 16

Request: Provide the documented minimal inhibitory concentration (MIC) with E. faecium ATCC19434 as the system for CNC1C(OC2OC(CO)C(NC(=O)C(N)CO)C(O)C2O)OC2CC(N)C(OC3C(N)CC(N)C(O)C3O)OC2C1O [Compound V1-l, 5-epi-4″-N-(L-seryl)apramycin]
Result: 32

Request: Provide the documented minimal inhibitory concentration (MIC) with E. faecium ATCC19434 as the system for CNC1C(OC2OC(C)C(N)C(O)C2O)OC2CC(N)C(OC3C(N)CC(N)CC3O)OC2C1O (stereo not shown) [Compound Q4, 6,6″-dideoxy-5-epiapramycin]
Result: 8

Request: Provide the documented minimal inhibitory concentration (MIC) with E. faecium ATCC19434 as the system for CNC1C(O[C@H]2OC(CO)[C@@H](NC(=O)[C@H](C)N)[C@H](O)C2O)O[C@H]2CC(N)[C@@H](O[C@@H]3C(N)C[C@@H](N)C(O)[C@H]3O)OC2C1O (stereo partly shown)
Result: 32

Request: Provide the documented minimal inhibitory concentration (MIC) with E. faecium ATCC19434 as the system for CNC1C(OC2OC(CO)C(NCCNC(=N)N)C(O)C2O)OC2CC(N)C(OC3C(N)CC(N)C(O)C3O)OC2C1O (stereo not shown)
Result: 16

Request: Provide the documented minimal inhibitory concentration (MIC) with E. faecium ATCC19434 as the system for CN[C@@H]1[C@@H](O[C@H]2O[C@H](CO)[C@@H](NC)[C@H](O)[C@H]2O)O[C@H]2C[C@@H](N)[C@@H](O[C@H]3CC[C@H](N)C[C@@H]3N)O[C@@H]2[C@@H]1O
Result: 8

====

Tested on: K. pneumoniae ATCC BAA-1705
Assay: MIC, agar plate dilution method, K. pneumoniae ATCC BAA-1705
Type: cell-based, Klebsiella pneumoniae
Conditions: K. pneumoniae ATCC BAA-1705, KPC-producing strain
Protocol: As for the representative compounds of a new aminoglycoside antibiotic of the present invention described in Examples, the minimal inhibitory concentration (MIC, μg/mL) was measured for various assay strains of bacteria using an agar plate dilution method in accordance with the method described in the Japan Society of Chemotherapy.
Record form. Attribute: minimal inhibitory concentration (MIC). Fill in for each entry.
Unit µg/mL implied. Number only.

Request: What does the data say about its minimal inhibitory concentration (MIC)? Entry: CNC1C(OC2OC(CO)C(N)C(O)C2O)OC2CC(N)C(OC3C(N)CC(N)CC3N)OC2C1O (centres unmarked)
Result: 4

Request: What does the data say about its minimal inhibitory concentration (MIC)? Entry: CNC1C(OC2OC(CO)C(N)C(O)C2O)OC2CC(N)C(OC3C(N)CC(N)C(O)C3O)OC2C1O (centres unmarked) [Compound B5, 5-epiapramycin]
Result: 1

Request: What does the data say about its minimal inhibitory concentration (MIC)? Entry: CNC1C(OC2OC(CO)C(N)C(O)C2O)OC2CC(N)C(OC3C(N)CC(N)C(O)C3N)OC2C1O (centres unmarked) [Compound D2, 5-amino-5-deoxy-5-epiapramycin]
Result: 2

Request: What does the data say about its minimal inhibitory concentration (MIC)? Entry: CN[C@@H]1[C@@H](O[C@H]2O[C@H](CO)[C@@H](N)[C@H](O)[C@H]2O)O[C@H]2C[C@@H](N)[C@@H](O[C@H]3[C@@H](F)[C@H](N)[C@H](N)C[C@@H]3N)O[C@@H]2[C@@H]1O
Result: 4

Request: What does the data say about its minimal inhibitory concentration (MIC)? Entry: CNC1C(O[C@H]2OC(CO)[C@@H](NC(=O)[C@H](C)N)[C@H](O)C2O)O[C@H]2CC(N)[C@@H](O[C@@H]3C(N)C[C@@H](N)C(O)[C@H]3O)OC2C1O (stereo partly drawn) [Compound V1-k, 4″-N-(L-alanyl)-5-epiapramycin]
Result: 1

====

measurement_kind: MIC (µg/mL)
Unit µg/mL implied. Number only.

Request: Provide the documented MIC with S. aureus MF490 as the system for CNC1C(O[C@H]2OC(CO)[C@@H](NC(=O)CCN)[C@H](O)C2O)O[C@H]2C[C@H](N)[C@@H](O[C@@H]3C(N)C[C@@H](N)C[C@H]3O)OC2C1O (stereo partly drawn) [Compound V1-q, 4″-N-(β-alanyl)-6-deoxy-5-epiapramycin]
Result: 4

Request: Provide the documented MIC with S. aureus MF490 as the system for CNC1C(O[C@H]2OC(CO)[C@@H](NC(=O)[C@@H](N)CO)[C@H](O)C2O)O[C@H]2CC(N)[C@@H](O[C@@H]3C(N)C[C@@H](N)C(O)[C@H]3O)OC2C1O (some centres unmarked)
Result: 32

====

tested on: P. aeruginosa MSC17707; assay: MIC, agar plate dilution method, P. aeruginosa MSC17707; type: cell-based, Pseudomonas aeruginosa; settings: Pseudomonas aeruginosa, MSC17707, P. aeruginosa MSC17707, AMK-resistant, read-out: minimal inhibitory concentration (MIC)
measurement_kind: MIC (mg/L)
Unit mg/L implied. Number only.

Request: What does the data say about its MIC? Entry: CNC1C(O[C@H]2OC(CO)[C@@H](NC(=N)N)CC2O)O[C@H]2CC(N)[C@@H](O[C@@H]3C(N)C[C@@H](N)C(O)[C@H]3F)OC2C1O (some centres unmarked)
Result: 8

Request: What does the data say about its MIC? Entry: CNC1C(O[C@H]2OC(CF)[C@@H](N)[C@H](O)C2O)O[C@H]2CC(N)[C@@H](O[C@@H]3C(N)C[C@@H](N)C(O)[C@H]3O)OC2C1O (some centres unmarked)
Result: 16

Request: What does the data say about its MIC? Entry: CNC1C(O[C@H]2OC(CO)[C@@H](NC(=O)CN)[C@H](O)C2O)O[C@H]2C[C@H](N)[C@@H](O[C@@H]3C(N)C[C@@H](N)C(O)[C@H]3N)OC2C1O (some centres unmarked)
Result: 4

Request: What does the data say about its MIC? Entry: CNC1C(O[C@H]2OC(CO)[C@@H](NCCCN)[C@H](O)C2O)O[C@H]2CC(N)[C@@H](O[C@H]3CC[C@H](N)CC3N)OC2C1O (some centres unmarked)
Result: 4

Request: What does the data say about its MIC? Entry: CNC1C(O[C@H]2OC(CO)[C@@H](NC(CN)CN)[C@H](O)C2O)O[C@H]2CC(N)[C@@H](O[C@@H]3C(N)C[C@@H](N)C(O)[C@H]3O)OC2C1O (some centres unmarked)
Result: 4

====

system: A. baumannii ATCC BAA-1710
measurement_kind: MIC (µg/mL)
Unit µg/mL implied. Number only.

Request: What does the data say about its MIC? Entry: CNC1C(O[C@H]2OC(CO)[C@@H](NC(=O)[C@H](C)N)[C@H](O)C2O)O[C@H]2CC(N)[C@@H](O[C@@H]3C(N)C[C@@H](N)C(O)[C@H]3O)OC2C1O (stereo partly drawn) [Compound V1-k, 4″-N-(L-alanyl)-5-epiapramycin]
Result: 8

Request: What does the data say about its MIC? Entry: CNC1C(O[C@H]2OC(CO)[C@@H](NC(=O)CCN)[C@H](O)C2O)O[C@H]2CC(N)[C@@H](O[C@@H]3C(N)C[C@@H](N)C(O)[C@H]3O)OC2C1O (stereo partly drawn) [Compound V1-g, 4″-N-(β-alanyl)apramycin]
Result: 8

Request: What does the data say about its MIC? Entry: CNC1C(O[C@H]2OC(CO)[C@@H](NC(=N)N)[C@H](O)C2O)O[C@H]2CC(N)[C@@H](O[C@H]3CC(O)[C@H](N)CC3N)OC2C1O (stereo partly shown) [Compound S1-e, 4″-deamino-5-deoxy-4″-guanidinoapramycin]
Result: 4

Request: What does the data say about its MIC? Entry: CNC1C(O[C@H]2OC(CO)[C@@H](NC3CN(C)C3)[C@H](O)C2O)O[C@H]2CC(N)[C@@H](O[C@@H]3C(N)C[C@@H](N)C(O)[C@H]3O)OC2C1O (stereo partly shown) [Compound A4-i, 4″-N-(1-methylazetidin-3-yl)apramycin]
Result: 16

====

Record form. Attribute: MIC. Fill in for each entry.
tested on: S. aureus RN4220/pMS520; test: MIC, agar plate dilution method, S. aureus RN4220/pMS520; type: cell-based, Staphylococcus aureus; settings: Staphylococcus aureus, MRSA, read-out: minimal inhibitory concentration (MIC), S. aureus RN4220/pMS520, MRSA
Unit µg/mL implied. Number only.

Request: Provide the documented MIC with S. aureus RN4220/pMS520 as the system for CNC1C(O[C@H]2OC(CO)[C@@H](N[C@H]3CC[C@@H](N)CC3)[C@H](O)C2O)O[C@H]2CC(N)[C@@H](O[C@@H]3C(N)C[C@@H](N)C(O)[C@H]3O)OC2C1O (stereo partly drawn) [Compound A4-f]
Result: 4

Request: Provide the documented MIC with S. aureus RN4220/pMS520 as the system for CNC1C(O[C@H]2OC(CO)[C@@H](NCCCN)[C@H](O)C2O)O[C@H]2CC(N)[C@@H](O[C@H]3CC[C@H](N)CC3N)OC2C1O (stereo partly drawn) [Compound T2-c]
Result: 2

Request: Provide the documented MIC with S. aureus RN4220/pMS520 as the system for CNC1C(O[C@H]2OC(CO)[C@@H](NCCN)[C@H](O)C2O)O[C@H]2CC(N)[C@@H](O[C@H]3CC[C@H](N)CC3N)OC2C1O (stereo partly drawn) [Compound T2-b, 4″-N-(2-aminoethyl)-5,6-dideoxyapramycin]
Result: 4
